# Tested on: human SMAD7 mRNA
# assay_explanation: Antisense inhibition of human SMAD7 mRNA expression in Hep3B cells by 3-10-3 cEt gapmers, 10,000 nM, electroporation (Example 2)
# Type: cell-based
# conditions_used: SMAD7 mRNA, Hep3B cells, 10,000 nM antisense oligonucleotide, electroporation, approximately 24 hours, primer probe set RTS5062, relative to untreated control cells
Strand notation (5' to 3'): a small letter for the sugar, then the base; units joined by * are phosphorothioate-linked, units joined directly phosphodiester-linked; [ ] holds rarer units or linkages, { } end groups; capitals alone tell only the bases. k = constrained ethyl (cEt); [5mC] = 5-methylcytosine; d = 2'-deoxy (DNA)
Record rule met whenever % Inhibition is at 50% or higher; record rule not met when lower.

Consider the worked cases shown below.
substance: 790498 (k[5mC]*kT*k[5mC]*dT*dA*dG*dT*dT*d[5mC]*dG*d[5mC]*dA*dG*kA*kG*kT; antisense) [compound 790498]
group: rule not met

substance: 829769 (antisense k[5mC]*kA*kG*d[5mC]*dA*dG*dG*dA*dG*dG*d[5mC]*dA*d[5mC]*kG*k[5mC]*kG) [compound 829769]
group: rule not met

substance: 790678 (kT*k[5mC]*k[5mC]*dT*dA*dT*dT*dG*dG*d[5mC]*dT*dG*dA*kT*k[5mC]*kT; antisense) [compound 790678]
group: rule not met

Task: Is it the case that 799396 (antisense kT*kG*kT*dT*dA*d[5mC]*dA*dA*dA*dT*dA*d[5mC]*dA*kG*kA*kG) [compound 799396] has % Inhibition reaching or exceeding 50%?
Output: rule met

Recorded values, source patent US10517889B2.
